- target.system: T1, HCV Core1-169 (HCV-1, UniProt P26664 1-169)
- T1 construct: also called Solid Phase HCV Core
- T1 sequence: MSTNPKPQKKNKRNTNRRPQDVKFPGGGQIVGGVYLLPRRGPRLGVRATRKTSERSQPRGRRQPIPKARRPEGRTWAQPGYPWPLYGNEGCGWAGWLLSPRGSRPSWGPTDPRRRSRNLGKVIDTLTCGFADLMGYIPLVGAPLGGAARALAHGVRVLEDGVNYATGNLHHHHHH
- measurement.notes: sandwich EIA, NC capture mAb; further: test concentration or dose not given here
Answer each item with its documented OD492.
Give just the numeric value; OD need not be written.

Can you share its OD492? I mean this binder: HCV 208B-1096 (antibody, V domains shown) VH: QVQLQQSGAGLAKPGASVKMSCKASGYTFTANKMHWAKQRPGQGLEWIGYIDPSSGYTEYNHKIQYKATLTADTSSSTAYMQLSTLTFEDSAVYYCTNFAYWGQGTLVTVSA VL: DIVMTQTPLTLSVTIGQPASISCKSSQSLLFTNGKTYLNWFLQRPGQSPKRLIYLLSKLDSGVPDRFSGSGSGTDFTLKISRVEAEDLGVYYCLQSTYFPLTFGAGTKLELKR 0.17

Can you share its OD492? I mean this binder: HCV 208A-207 (antibody, V domains shown) VH: QGQLQQPGAEFVKPGASLKLSCRASGYTFTSYWIHWVKQRPGQGLEWIGEIDPSDSYINQNQKFRGKATLTVDKSSSTAYMELSGLTSEDSAVYYCARHYYGVLDSWGQGTTLTVSS VL: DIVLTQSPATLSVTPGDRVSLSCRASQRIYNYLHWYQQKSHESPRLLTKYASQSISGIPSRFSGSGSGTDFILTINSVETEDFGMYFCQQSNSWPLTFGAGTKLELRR 0.37

Can you share its OD492? I mean this binder: HCV 208A-741 (antibody, V domains shown) VH: QLQQSGPVLVKPGASVMISCKTSGYTFTENAMHWVKQSHGKSLEWIGGVNPNNGDTIFNQKFKGKATLTVDKSSSTAFMELRSLTSEESTVYYCVRRELDFFDYWGQGTSVTVSS VL: DIVLTQSPASLAVSLGQRTTISCGASQSVSTSRFSYMHWYQQKPGQPPKLLIKYASNLESGVPARFSGSGSGTDFTLNIHPVAEEDTAAYYCQHSWEFPFTFGSGTKLEIKR 0.29

Can you share its OD492? I mean this binder: HCV 208A-293 (antibody, V domains shown) VH: EVQLQQSGPELVKPGASVKISCKASGFTFTEYAMHWMKQSHGKSLEWIGGINPTNGDAIYNQKFKDKAKLTVDRSSSTAYMELRSLTSDDSALFYCARRELDYFPSWGQGTTLTVSS VL: DIVLTQSPASLIVSLGQRATISCRASQSVSTSRFSYVHWIQQKPGQPPKLLIKYASNLESGVPVRFSGSGSGTDFILNIHPVEEEDTATYFCQHSWEFPFTFGSGTKLEIKR 0.37

Can you share its OD492? I mean this binder: HCV 208B-395 (antibody, V domains shown) VH: QVQLQQSGAGLAKPGASVKMSCKASGYTFTANKMHWTKQRPGQGLEWIGYIDPSSGYTQYNHKIQDKATLTADTSSSTAYMQLSSLTFEDSAVYYCTNFAYWGQGTLVTVSA VL: DIVLTQSPATLSVTPGDRVSLSCRASQRIYNYLHWYQQKSHESPRLLIKYASQSISGIPSRFSGSGSGTDFILTINSVETEDFGMYFCQQSNSWPLTFGAGTKLELRR 0.2

Data provenance: patent US9371374
